experiment: Formation of 1,5-cz-[M(Lig)] from Lig and M^III ions (metal dependent click-zip) (Charts 4, 5); format: physicochemical; conditions: 1 hour at 80° C.; MOPS/NaOH buffer pH 7.0; TD728, TD827 in 50% i-PrOH; TD714 sum of two diastereoisomers
Short version: conversion to 1,5-cz-[M(Lig)], Y^III at least 2% is 1.0, less is 0.0.

{"compound": "CC(C)[Si](C#Cc1cccc(CN2CCN(CC(=O)O)CCN(Cc3cccc(CN=[N+]=[N-])n3)CCN(CC(=O)O)CC2)n1)(C(C)C)C(C)C [TD728]", "qualitative-label": 0.0}
{"compound": "C#Cc1cccc(CN2CCN(CC(=O)O)CCN(Cc3cc(-c4ccc(C(=O)O)cc4)cc(CN=[N+]=[N-])n3)CCN(CC(=O)O)CC2)n1 [TD742]", "qualitative-label": 1.0}
{"compound": "C#CCN(CC#C)CCN1CCN(CC(=O)O)CCN(Cc2cc(-c3ccccc3)cc(CN=[N+]=[N-])n2)CCN(CC(=O)O)CC1 [TD669]", "qualitative-label": 0.0}
{"compound": "C#Cc1cccc(CN2CCN(CC(=O)O)CCN(Cc3cc(C(=O)OC(C)C)cc(CN=[N+]=[N-])n3)CCN(CC(=O)O)CC2)n1 [TD1148]", "qualitative-label": 1.0}
{"compound": "[N-]=[N+]=NCc1cccc(CN2CCN(CC(=O)O)CCN(Cc3cccc(C#CC4CC4)n3)CCN(CC(=O)O)CC2)n1 [TD943]", "qualitative-label": 0.0}
